assayed-target: p300 (Homo sapiens, UniProt Q09472)
Construct: host or cells: A549 P300 HiBit cells
Sequence (Q09472 whole entry): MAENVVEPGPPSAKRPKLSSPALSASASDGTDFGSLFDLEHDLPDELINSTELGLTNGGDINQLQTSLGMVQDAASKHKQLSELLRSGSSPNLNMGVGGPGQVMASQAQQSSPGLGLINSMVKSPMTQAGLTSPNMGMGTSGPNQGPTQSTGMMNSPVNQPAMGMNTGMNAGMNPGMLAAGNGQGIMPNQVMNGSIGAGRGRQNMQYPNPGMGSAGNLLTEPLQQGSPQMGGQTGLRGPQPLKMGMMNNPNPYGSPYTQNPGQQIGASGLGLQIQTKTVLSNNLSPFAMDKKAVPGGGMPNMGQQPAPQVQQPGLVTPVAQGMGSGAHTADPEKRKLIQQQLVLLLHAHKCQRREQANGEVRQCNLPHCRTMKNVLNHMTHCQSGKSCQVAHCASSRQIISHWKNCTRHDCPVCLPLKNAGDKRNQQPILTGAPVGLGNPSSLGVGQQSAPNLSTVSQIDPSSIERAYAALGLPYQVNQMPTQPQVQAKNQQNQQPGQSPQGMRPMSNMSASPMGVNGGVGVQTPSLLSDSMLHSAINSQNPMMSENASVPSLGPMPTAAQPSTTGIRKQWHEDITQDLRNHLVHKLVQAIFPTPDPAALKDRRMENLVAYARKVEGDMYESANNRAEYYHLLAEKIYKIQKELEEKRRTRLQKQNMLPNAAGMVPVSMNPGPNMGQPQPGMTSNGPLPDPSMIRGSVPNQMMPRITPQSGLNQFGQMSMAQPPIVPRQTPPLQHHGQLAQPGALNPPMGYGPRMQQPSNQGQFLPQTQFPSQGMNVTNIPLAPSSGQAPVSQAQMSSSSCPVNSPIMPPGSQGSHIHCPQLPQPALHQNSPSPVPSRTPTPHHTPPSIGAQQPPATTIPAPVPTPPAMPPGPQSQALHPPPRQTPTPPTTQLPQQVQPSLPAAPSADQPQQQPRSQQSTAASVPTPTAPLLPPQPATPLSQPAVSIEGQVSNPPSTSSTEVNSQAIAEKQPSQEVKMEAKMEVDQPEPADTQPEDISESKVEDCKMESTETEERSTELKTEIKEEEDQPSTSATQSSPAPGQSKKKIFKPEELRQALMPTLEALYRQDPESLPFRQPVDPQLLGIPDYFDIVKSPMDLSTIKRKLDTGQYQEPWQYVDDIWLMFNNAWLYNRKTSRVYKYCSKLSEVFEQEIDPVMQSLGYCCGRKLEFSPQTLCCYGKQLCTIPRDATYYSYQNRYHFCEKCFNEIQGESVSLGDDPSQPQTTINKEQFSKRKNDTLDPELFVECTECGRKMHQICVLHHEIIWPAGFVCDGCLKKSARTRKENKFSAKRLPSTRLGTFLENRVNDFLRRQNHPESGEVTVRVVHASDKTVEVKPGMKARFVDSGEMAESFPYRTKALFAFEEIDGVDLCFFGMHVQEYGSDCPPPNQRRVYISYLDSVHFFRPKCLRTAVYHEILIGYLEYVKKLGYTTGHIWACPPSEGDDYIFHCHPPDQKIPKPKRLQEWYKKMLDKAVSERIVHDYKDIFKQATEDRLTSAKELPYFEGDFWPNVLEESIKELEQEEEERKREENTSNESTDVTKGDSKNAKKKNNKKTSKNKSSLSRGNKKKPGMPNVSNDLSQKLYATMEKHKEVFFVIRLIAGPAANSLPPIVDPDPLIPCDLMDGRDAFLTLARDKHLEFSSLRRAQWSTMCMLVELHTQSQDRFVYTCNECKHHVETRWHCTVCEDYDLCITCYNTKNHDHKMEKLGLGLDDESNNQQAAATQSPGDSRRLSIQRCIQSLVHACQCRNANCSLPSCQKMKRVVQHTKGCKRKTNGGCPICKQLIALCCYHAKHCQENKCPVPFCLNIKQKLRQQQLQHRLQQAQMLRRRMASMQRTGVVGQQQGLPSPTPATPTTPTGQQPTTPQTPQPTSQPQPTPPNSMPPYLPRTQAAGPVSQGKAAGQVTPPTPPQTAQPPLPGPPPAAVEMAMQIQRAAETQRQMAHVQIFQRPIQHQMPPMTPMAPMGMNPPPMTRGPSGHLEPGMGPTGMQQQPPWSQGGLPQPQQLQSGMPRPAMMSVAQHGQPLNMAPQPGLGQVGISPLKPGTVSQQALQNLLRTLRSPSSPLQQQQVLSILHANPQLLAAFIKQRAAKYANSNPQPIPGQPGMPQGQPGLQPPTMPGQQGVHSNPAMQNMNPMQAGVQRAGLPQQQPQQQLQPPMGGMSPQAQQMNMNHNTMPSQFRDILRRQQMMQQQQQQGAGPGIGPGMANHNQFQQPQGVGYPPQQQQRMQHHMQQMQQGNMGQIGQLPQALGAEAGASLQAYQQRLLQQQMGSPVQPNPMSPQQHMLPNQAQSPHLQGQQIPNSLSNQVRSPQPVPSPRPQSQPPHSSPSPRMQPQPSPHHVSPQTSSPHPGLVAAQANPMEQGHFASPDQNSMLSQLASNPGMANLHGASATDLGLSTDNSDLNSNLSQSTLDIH
method-description: P300 degradation, HiBit technology in A549 P300 HiBit cells (2 h)
Format: cell-based
experimental-conditions: A549 P300 HiBit cells, 2 hrs post treatment
Below, each entry is listed alongside its reported DC50.

INSERT INTO measurements (compound, measurement) VALUES
  ('CC(C)c1cc(-c2cccc3cc(-c4ccc(C(=O)NCC#Cc5cnc6c(c5)c(C5CCC(=O)NC5=O)nn6C)nc4)ncc23)cc2c1n(C)c(=O)n2C (stereo not drawn)', '1 to 9.9 nM'),
  ('CC(C)c1cc(N2CCOc3cc(-c4ccc(C(=O)NCC#Cc5ccc6occ(C7CCC(=O)NC7=O)c6c5)nc4)c(C#N)cc32)cc2c1n(C)c(=O)n2C (stereo not drawn)', '1 to 9.9 nM');

Next:
Req: Identify measured DC50 corresponding to Cc1cc(N2CCCc3nc(-c4ccc(C(=O)NCC#Cc5cc6c(C7CCC(=O)NC7=O)nccc6o5)nc4)ncc32)c2cc(C)c(=O)n(C)c2c1 (stereo not drawn)
Resp: 1 to 9.9 nM

====

Below, each entry is listed alongside its reported DC50.
assayed-target: CBP (Homo sapiens)
Construct: host or cells: A549 CBP HiBit cells
method-description: CBP degradation, HiBit technology in A549 CBP HiBit cells (24 h)
Assay type: cell-based
experimental-conditions: 24 hrs post treatment

Req: Identify measured DC50 corresponding to CN1CCN(c2nc(-c3cccc4cc(-c5ccc(C(=O)NCC#Cc6ccc7occ(C8CCC(=O)NC8=O)c7c6)nc5)ncc34)cc3c2n(C)c(=O)n3C)CC1 (stereo not drawn)
Resp: > 1 µM

Req: Identify measured DC50 corresponding to Cn1c(=O)n(C)c2cc(-c3cccc4cc(-c5ccc(C(=O)NCC#Cc6ccc7cnn(C8CCC(=O)NC8=O)c7c6)nc5)ncc34)ccc21 (stereo not drawn)
Resp: > 1 µM

Req: Identify measured DC50 corresponding to Cc1cc2c(N3CCCc4nc(-c5ccc(C(=O)NCC#Cc6nc7cccc(C8CCC(=O)NC8=O)n7n6)nc5)ncc43)cc(C3CCOCC3)cc2n(C)c1=O (stereo not drawn)
Resp: > 1 µM

Req: Identify measured DC50 corresponding to Cc1cc2c(N3CCCc4nc(-c5ccc(C(=O)NCC#Cc6ccc7occ(C8CCC(=O)NC8=O)c7c6)nc5)ncc43)nc(N3CCOCC3)nc2n(C)c1=O (stereo not drawn)
Resp: > 1 µM

Req: Identify measured DC50 corresponding to Cc1cc2c(N3CCOc4cc(-c5ccc(C(=O)NCC#Cc6ccc7occ(C8CCC(=O)NC8=O)c7c6)nc5)ncc43)cc(F)cc2n(C)c1=O (stereo not drawn)
Resp: > 1 µM

Req: Identify measured DC50 corresponding to CC(C)c1cc(-c2cccc3cc(-c4ccc(C(=O)NCC#Cc5cc6cccc(C7CCC(=O)NC7=O)c6o5)nc4)ncc23)cc2c1n(C)c(=O)n2C (stereo not drawn)
Resp: > 1 µM

====

assayed-target: p300 (Homo sapiens)
Construct: host or cells: A549 P300 HiBit cells
method-description: P300 degradation, HiBit technology in A549 P300 HiBit cells (2 h)
Format: cell-based
experimental-conditions: A549 P300 HiBit cells, 2 hrs post treatment
Below, each entry is listed alongside its reported DC50.

Some solved cases for reference:
INSERT INTO measurements (molecule, readout_name, measurement) VALUES
  ('Cc1cc(-c2ncc(N(C)c3ccc4c(c3)n(C)c(=O)n4C)cn2)cnc1C(=O)NCC#Cc1cc2c(C3CCC(=O)NC3=O)nccc2o1 (stereo not shown) [Example A192]', 'DC50', '1 to 9.9 nM'),
  ('Cn1c(=O)n(C)c2c(N3CCC(O)CC3)nc(-c3cccc4cc(-c5ccc(C(=O)NCC#Cc6ccc7occ(C8CCC(=O)NC8=O)c7c6)nc5)ncc34)cc21 (stereo not shown) [Example A124]', 'DC50', '< 1 nM'),
  ('Cc1cc2c(N3CCCc4nc(-c5ccc(C(=O)NCC=C=Cc6ccc7occ(C8CCC(=O)NC8=O)c7c6)nc5)ncc43)cc(C3CCOCC3)cc2n(C)c1=O (stereo not shown) [Example B116]', 'DC50', '10 to 99 nM'),
  ('Cn1c(=O)oc2cc(N3CCOc4nc(-c5ccc(C(=O)NCC#Cc6ccc7occ(C8CCC(=O)NC8=O)c7c6)nc5)ncc43)ccc21 (stereo not shown) [Example A144]', 'DC50', '> 1000 nM'),
  ('CN1CCN(c2ccc3c(c2)n(C)c(=O)n3C)c2cnc(-c3ccc(C(=O)NCC#Cc4cc5c(C6CCC(=O)NC6=O)nccc5o4)nc3)cc21 (stereo not shown) [Example A218]', 'DC50', '< 1 nM');

Req: Identify measured DC50 corresponding to Cc1cc2c(N3CCCc4nc(-c5ccc(C(=O)NCC#Cc6ccc7occ([C@@H]8CCC(=O)NC8=O)c7c6)nc5)ncc43)nc(N3CCOCC3)cc2n(C)c1=O [Example B73]
Resp: 1 to 9.9 nM

Req: Identify measured DC50 corresponding to Cc1cc(-c2ncc3c(n2)OCCN3c2cc(C3CCOCC3)c3c(c2)n(C)c(=O)n3C)cnc1C(=O)NCC#Cc1cc2c(C3CCC(=O)NC3=O)cccc2o1 (stereo not shown) [Example A252]
Resp: 1 to 9.9 nM

Req: Identify measured DC50 corresponding to Cc1cc(-c2ncc(N(C)c3cc(C4CCN(C)CC4)c4c(c3)n(C)c(=O)n4C)cn2)cnc1C(=O)NCC#Cc1ccc2occ(C3CCC(=O)NC3=O)c2c1 (stereo not shown) [Example A112]
Resp: 1 to 9.9 nM

Req: Identify measured DC50 corresponding to CCn1c(=O)n(C)c2c(C)cc(N3CCOc4nc(-c5ccc(C(=O)NCC#Cc6ccc7occ(C8CCC(=O)NC8=O)c7c6)nc5)ncc43)cc21 (stereo not shown) [Example A77]
Resp: 1 to 9.9 nM

Req: Identify measured DC50 corresponding to Cn1c(=O)n(C)c2c(N3CC(C)(O)C3)nc(-c3cccc4cc(-c5ccc(C(=O)NCC#Cc6ccc7occ(C8CCC(=O)NC8=O)c7c6)nc5)ncc34)cc21 (stereo not shown) [Example A145]
Resp: < 1 nM

Req: Identify measured DC50 corresponding to Cc1cc(-c2ncc(N(C)c3cc(C4CCOCC4)c4oc(=O)n(C)c4c3)cn2)cnc1C(=O)NCC#Cc1ccc2occ(C3CCC(=O)NC3=O)c2c1 (stereo not shown) [Example A114]
Resp: > 1000 nM

Req: Identify measured DC50 corresponding to Cc1cc(-c2ccc(N(C)c3cc(C(C)C)c4c(c3)n(C)c(=O)n4C)cn2)cnc1C(=O)NCC#Cc1cc(NC2CCC(=O)NC2=O)nn1C (stereo not shown) [Example A154]
Resp: 10 to 99 nM

Req: Identify measured DC50 corresponding to Cn1c(=O)n(C)c2c(N3CCC(C)(O)CC3)nc(-c3cccc4cc(-c5ccc(C(=O)NCC#Cc6cc7c(C8CCC(=O)NC8=O)cccc7o6)nc5)ncc34)cc21 (stereo not shown) [Example A258]
Resp: < 1 nM

Req: Identify measured DC50 corresponding to Cc1cc2c(N3CCOc4cc(-c5ccc(C(=O)NCC#Cc6ccc7occ(C8CCC(=O)NC8=O)c7c6)nc5)c(F)cc43)cc(F)cc2n(C)c1=O (stereo not shown) [Example B100]
Resp: 1 to 9.9 nM

Req: Identify measured DC50 corresponding to Cc1cc2c(N3CCCc4nc(-c5ccc(C(=O)NCC#Cc6ccc7occ(C8CCC(=O)NC8=O)c7c6)nc5)ncc43)nc(N3CCC(F)CC3)cc2n(C)c1=O (stereo not shown) [Example B27]
Resp: 1 to 9.9 nM

Req: Identify measured DC50 corresponding to Cc1cc2c(N3CCCc4nc(-c5ccc(C(=O)NCC#Cc6cc7c(C8CCC(=O)NC8=O)cccc7o6)nc5)ncc43)nc(N3CC4CC4C3)cc2n(C)c1=O (stereo not shown) [Example B172]
Resp: 10 to 99 nM

Req: Identify measured DC50 corresponding to Cc1cc2c(N3CCOc4cc(-c5ccc(C(=O)NCC#Cc6ccc7occ(C8CCC(=O)NC8=O)c7c6)nc5)ncc43)cc(C3CCOCC3)cc2n(C)c1=O (stereo not shown) [Example B109]
Resp: < 1 nM

Req: Identify measured DC50 corresponding to COc1nc(-c2cnc(C(=O)NCC#Cc3cc4c(C5CCC(=O)NC5=O)cccc4o3)c(C)c2)ncc1Nc1cc(C2CCOCC2)c2c(c1)n(C)c(=O)n2C (stereo not shown) [Example A207]
Resp: < 1 nM

====

Below, each entry is listed alongside its reported Dmax.
assayed-target: CBP (Homo sapiens, UniProt Q92793)
Construct: host or cells: A549 CBP HiBit cells
Sequence (Q92793 whole entry): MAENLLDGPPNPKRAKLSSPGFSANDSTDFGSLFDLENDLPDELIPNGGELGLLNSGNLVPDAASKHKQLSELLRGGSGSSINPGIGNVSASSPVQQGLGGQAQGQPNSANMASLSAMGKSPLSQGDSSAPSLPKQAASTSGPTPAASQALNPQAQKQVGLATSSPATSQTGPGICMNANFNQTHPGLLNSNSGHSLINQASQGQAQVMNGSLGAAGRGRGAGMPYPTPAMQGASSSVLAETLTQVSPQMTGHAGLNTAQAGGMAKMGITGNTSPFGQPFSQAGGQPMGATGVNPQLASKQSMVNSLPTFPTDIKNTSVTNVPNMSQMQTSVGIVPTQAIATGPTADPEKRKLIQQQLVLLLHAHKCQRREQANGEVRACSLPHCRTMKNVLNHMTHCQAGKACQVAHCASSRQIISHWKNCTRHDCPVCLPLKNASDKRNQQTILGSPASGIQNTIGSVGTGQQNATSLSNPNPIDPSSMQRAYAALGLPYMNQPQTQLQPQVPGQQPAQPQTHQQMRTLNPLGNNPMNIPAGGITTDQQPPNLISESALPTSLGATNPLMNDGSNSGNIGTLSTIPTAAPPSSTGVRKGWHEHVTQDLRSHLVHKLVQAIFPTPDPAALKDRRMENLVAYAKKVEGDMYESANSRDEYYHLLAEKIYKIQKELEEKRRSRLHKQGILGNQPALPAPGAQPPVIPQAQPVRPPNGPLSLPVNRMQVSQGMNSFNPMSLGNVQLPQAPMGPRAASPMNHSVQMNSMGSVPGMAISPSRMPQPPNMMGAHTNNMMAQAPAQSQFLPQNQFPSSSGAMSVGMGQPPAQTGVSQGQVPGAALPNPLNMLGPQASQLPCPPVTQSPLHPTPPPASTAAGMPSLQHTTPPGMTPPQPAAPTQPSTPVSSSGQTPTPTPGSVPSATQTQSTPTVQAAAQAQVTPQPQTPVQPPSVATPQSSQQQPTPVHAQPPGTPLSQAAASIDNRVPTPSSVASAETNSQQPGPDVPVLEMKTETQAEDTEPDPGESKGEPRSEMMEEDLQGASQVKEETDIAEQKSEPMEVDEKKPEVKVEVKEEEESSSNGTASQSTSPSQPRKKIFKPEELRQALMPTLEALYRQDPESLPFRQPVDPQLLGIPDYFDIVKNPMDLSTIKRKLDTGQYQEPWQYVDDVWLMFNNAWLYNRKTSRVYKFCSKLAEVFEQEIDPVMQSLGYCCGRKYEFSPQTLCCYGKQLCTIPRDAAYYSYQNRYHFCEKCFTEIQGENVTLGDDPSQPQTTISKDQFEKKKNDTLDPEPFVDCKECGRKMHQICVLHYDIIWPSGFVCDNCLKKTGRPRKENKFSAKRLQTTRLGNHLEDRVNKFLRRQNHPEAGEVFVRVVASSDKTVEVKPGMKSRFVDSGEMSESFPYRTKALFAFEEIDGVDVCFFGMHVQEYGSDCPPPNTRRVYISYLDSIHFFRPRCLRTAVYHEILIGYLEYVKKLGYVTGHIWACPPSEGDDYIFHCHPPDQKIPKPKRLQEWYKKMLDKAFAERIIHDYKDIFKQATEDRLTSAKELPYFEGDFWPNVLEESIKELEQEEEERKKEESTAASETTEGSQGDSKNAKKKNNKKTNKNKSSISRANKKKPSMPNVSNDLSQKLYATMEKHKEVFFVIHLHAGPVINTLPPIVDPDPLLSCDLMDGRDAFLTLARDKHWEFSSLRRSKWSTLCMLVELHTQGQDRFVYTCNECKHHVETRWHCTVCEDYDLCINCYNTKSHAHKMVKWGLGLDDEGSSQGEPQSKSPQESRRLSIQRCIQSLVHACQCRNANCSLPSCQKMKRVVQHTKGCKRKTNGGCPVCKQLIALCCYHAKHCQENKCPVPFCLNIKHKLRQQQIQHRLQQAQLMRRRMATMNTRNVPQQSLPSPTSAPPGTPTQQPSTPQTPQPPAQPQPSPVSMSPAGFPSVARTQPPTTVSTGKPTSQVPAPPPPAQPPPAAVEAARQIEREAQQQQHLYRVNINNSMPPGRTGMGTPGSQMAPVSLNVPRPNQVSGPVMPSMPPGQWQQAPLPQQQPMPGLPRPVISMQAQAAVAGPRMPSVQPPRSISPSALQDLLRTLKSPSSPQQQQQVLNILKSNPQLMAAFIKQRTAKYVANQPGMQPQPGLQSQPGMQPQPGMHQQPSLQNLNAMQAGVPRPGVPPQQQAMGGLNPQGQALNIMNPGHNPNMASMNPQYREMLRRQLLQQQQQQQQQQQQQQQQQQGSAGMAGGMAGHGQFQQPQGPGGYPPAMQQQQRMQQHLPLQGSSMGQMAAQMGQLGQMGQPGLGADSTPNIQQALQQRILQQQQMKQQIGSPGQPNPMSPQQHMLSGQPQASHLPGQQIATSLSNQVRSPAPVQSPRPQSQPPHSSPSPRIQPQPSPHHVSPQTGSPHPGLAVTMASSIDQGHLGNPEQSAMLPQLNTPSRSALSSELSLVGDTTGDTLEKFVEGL
method-description: CBP degradation, HiBit technology in A549 CBP HiBit cells (24 h)
Type: cell-based
experimental-conditions: 24 hrs post treatment

Req: Identify measured Dmax corresponding to Cc1cc(-c2ncc(N(C)c3cc(C4CCOCC4)c4c(c3)n(C)c(=O)n4C)cn2)cnc1C(=O)NCC#Cc1ccc2occ(C3CCC(=O)NC3=O)c2c1 (stereo not shown)
Resp: < 20%

Req: Identify measured Dmax corresponding to Cc1cc2c(N3CCCc4nc(-c5ccc(C(=O)NCC#Cc6cc7c(C8CCC(=O)NC8=O)cccc7o6)nc5)ncc43)nc(N3CCOCC3)cc2n(C)c1=O (stereo not shown)
Resp: < 20%

Req: Identify measured Dmax corresponding to Cn1c(=O)n(C)c2cc(N3CCCc4nc(-c5ccc(C(=O)NCC#Cc6cc7c(C8CCC(=O)NC8=O)cccc7o6)nc5)ncc43)ccc21 (stereo not shown)
Resp: < 20%

Req: Identify measured Dmax corresponding to Cn1c(=O)n(C)c2c(N3CC4CC(C3)O4)nc(-c3cccc4cc(-c5ccc(C(=O)NCC#Cc6cc7c(C8CCC(=O)NC8=O)cccc7o6)nc5)ncc34)cc21 (stereo not shown)
Resp: < 20%

Req: Identify measured Dmax corresponding to Cc1cc2c(N3CCCc4nc(-c5ccc(C(=O)NCC#Cc6ccc7c(c6)c(C6CCC(=O)NC6=O)nn7C)nc5)ncc43)cc(C3CCOCC3)cc2n(C)c1=O (stereo not shown)
Resp: 60 to 79%

Req: Identify measured Dmax corresponding to Cc1cc(-c2cc3cccc(-c4cc5c(c(N6CCOCC6)n4)n(C)c(=O)n5C)c3cn2)cnc1C(=O)NCC#Cc1ccc2occ(C3CCC(=O)NC3=O)c2c1 (stereo not shown)
Resp: < 20%

Req: Identify measured Dmax corresponding to "Cc1cc(-c2ncc(N(C)c3cc(C4CCOCC4)c4c(c3)n(C)c(=O)n4C)cn2)cnc1C(=O)NCC#Cc1ccc2occ([C@@H]3CCC(=O)NC3=O)c2c1"
Resp: < 20%
